The measurements presented in this section are drawn from patent US11447466B2.

STUDY SYSTEM: human TLR9 (Homo sapiens, UniProt Q9NR96)
Sequence (Q9NR96 26-1032): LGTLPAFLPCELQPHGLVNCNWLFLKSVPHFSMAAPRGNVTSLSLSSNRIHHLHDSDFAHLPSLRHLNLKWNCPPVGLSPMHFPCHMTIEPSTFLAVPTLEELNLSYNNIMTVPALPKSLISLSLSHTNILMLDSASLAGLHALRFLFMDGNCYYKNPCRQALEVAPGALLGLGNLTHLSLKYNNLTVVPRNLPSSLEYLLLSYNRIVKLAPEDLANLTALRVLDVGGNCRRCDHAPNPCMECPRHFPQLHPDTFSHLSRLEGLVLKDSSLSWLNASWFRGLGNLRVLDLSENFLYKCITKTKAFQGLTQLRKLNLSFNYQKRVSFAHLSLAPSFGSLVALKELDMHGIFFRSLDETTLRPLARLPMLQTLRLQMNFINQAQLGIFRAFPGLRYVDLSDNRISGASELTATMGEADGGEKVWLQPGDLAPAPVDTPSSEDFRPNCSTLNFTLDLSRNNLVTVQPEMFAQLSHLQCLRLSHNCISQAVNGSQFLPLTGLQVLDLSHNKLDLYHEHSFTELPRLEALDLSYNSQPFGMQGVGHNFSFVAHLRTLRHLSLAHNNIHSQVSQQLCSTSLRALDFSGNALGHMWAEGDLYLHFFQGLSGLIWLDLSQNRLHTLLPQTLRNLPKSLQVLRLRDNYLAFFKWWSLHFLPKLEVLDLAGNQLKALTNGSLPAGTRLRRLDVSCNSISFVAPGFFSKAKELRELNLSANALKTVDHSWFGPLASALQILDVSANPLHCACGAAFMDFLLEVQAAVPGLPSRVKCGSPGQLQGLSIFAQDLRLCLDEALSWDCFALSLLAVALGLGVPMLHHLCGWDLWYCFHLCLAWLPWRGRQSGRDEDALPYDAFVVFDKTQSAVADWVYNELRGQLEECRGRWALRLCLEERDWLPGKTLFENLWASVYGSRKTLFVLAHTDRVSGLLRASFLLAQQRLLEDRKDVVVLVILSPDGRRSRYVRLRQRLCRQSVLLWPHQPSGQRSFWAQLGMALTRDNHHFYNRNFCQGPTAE
MEASUREMENT PROTOCOL: TLR9 inhibition reporter assay (HEK-Blue SEAP reporter, ODN2006 stimulation)
SETUP CONDITIONS: HEK-Blue cells overexpressing human TLR9, SEAP reporter, ODN2006 5 nM, 22 hour incubation
REPORTED ENDPOINT: pIC50
Scale note: pIC50 = -log10(concentration in M).

Ask: // map Cc1c(-c2[nH]c3ccc(C4CCN(CCC(C)C)CC4)cc3c2C(C)C)cn(C)c(=O)c1Cl [Example 91] to recorded pIC50 (system: human TLR9 (Homo sapiens, UniProt Q9NR96))
Result: 5.36

Ask: I'm curious: which pIC50 was measured for CC(C)c1c(-c2cc(-c3cncnc3)c(=O)n(C)c2)[nH]c2ccc(C3CCN(C(C)C)CC3)cc12 [Example 244] tested on human TLR9 (Homo sapiens, UniProt Q9NR96)?
Result: 6.02

Ask: Form field - read-out: pIC50; system: human TLR9 (Homo sapiens, UniProt Q9NR96); submitted item: CC(C)c1c(-c2ccc(=O)n(C)n2)[nH]c2ccc(C3CCNCC3)cc12 [Example 5]
Result: 6.12

Ask: So what pIC50 did CNC(=O)CN1CCC(c2ccc3[nH]c(-c4cc(C)c(=O)n(C)n4)c(C(C)C)c3c2)CC1 [Example 118] get with human TLR9 (Homo sapiens, UniProt Q9NR96)?
Result: 5.02

----------
Field: IC50. Provide a value for each of the molecules that follow.
STUDY SYSTEM: UniProt Q9NYK1
Sequence (Q9NYK1 27-1049): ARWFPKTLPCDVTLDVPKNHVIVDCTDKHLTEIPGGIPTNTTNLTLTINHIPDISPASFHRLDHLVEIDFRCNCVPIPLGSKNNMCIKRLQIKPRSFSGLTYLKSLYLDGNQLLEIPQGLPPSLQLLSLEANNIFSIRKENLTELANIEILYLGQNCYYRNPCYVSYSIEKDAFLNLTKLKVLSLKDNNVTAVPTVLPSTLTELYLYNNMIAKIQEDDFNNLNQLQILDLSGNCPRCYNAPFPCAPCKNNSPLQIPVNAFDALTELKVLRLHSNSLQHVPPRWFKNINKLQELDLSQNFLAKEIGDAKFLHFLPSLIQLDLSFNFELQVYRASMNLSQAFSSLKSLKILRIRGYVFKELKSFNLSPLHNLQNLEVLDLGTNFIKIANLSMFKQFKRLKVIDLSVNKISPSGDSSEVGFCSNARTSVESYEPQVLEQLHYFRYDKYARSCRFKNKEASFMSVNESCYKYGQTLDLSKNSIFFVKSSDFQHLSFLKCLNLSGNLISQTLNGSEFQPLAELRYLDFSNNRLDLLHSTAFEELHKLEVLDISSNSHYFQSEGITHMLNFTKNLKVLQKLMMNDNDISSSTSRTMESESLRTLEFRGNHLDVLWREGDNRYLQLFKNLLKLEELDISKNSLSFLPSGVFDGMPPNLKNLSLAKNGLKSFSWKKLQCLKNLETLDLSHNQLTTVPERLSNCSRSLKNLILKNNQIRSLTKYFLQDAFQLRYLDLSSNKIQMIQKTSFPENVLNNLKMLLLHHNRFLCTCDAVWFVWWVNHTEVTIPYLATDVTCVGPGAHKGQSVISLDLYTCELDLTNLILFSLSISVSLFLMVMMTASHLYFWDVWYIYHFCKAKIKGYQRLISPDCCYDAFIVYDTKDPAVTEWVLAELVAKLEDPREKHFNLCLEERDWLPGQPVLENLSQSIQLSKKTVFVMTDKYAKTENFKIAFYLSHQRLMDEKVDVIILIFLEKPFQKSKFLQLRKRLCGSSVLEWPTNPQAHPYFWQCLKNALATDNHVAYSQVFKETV
MEASUREMENT PROTOCOL: TLR7 inhibition reporter assay (HEK-Blue SEAP reporter, gardiquimod stimulation)
SETUP CONDITIONS: HEK-Blue cells overexpressing human TLR7, SEAP reporter, gardiquimod 7.5 μM, 22 hour incubation
# value in nM; strip the unit string

Ask: Can you look up the measured IC50 of Cc1cc(-c2[nH]c3ccc(C4CCN(CC(O)C(C)C)CC4)cc3c2C(C)C)cn(C)c1=O (centres unmarked) [Example 324] for me?
Result: 2.5

Ask: Fill in: IC50 of CCCNC(=O)c1cc(-c2[nH]c3ccc(C4CCNCC4)cc3c2C(C)C)cn(C)c1=O [Example 64] is ___
Result: 480

Ask: Fill in the blank: the reported IC50 of Cc1nc(-c2[nH]c3ccc(C4CCN(C5CCCOC5)CC4)cc3c2C(C)C)cn(C)c1=O (centres unmarked) [Example 187] is ____.
Result: 85.4

Ask: Request the reported IC50 associated with Cc1cc(-c2[nH]c3ccc(C4CCNCC4)cc3c2C(C)C)c(C)n(C)c1=O [Example 3]
Result: 8.4

Ask: Recorded IC50 of Cc1cc(-c2[nH]c3ccc(C4CCN(C(=O)C[C@H]5CCCN5)CC4)cc3c2C(C)C)cn(C)c1=O [Example 306] , please.
Result: 16.5

Ask: Name the reported IC50 value associated with the molecule CCCN1CCC(c2ccc3[nH]c(-c4cn(C)c(=O)c(-c5cnn(C)c5)c4C)c(C(C)C)c3c2)CC1 [Example 333]
Result: 92.2

Ask: Given Cc1c(-c2[nH]c3ccc(C4CCN(CC(C)(C)O)CC4)cc3c2C(C)C)cn(C)c(=O)c1C#N [Example 322] , state its recorded IC50.
Result: 45.7

Ask: Reported IC50 for CCc1cc(-c2[nH]c3ccc(C4CCNCC4)cc3c2C(C)C)c(C)n(CC)c1=O [Example 35] : what is it?
Result: 60
